Where these numbers come from: patent US11708360B2

Would you kindly list IC50 for each of these compounds?
target: CCR6 (Homo sapiens); construct: Human CD4+CCR6+CXCR3-T cells were isolated from leukopak from healthy donors; endogenous in cells; assay: CCR6+ T Cell Chemotaxis Assay; assay type: cell-based; settings: Table 11; human CD4+CCR6+CXCR3- T cells, CCL20 0.5 nM in bottom chamber, 1 h at 37° C.; read-out: IC50
Sequence (P51684 whole entry): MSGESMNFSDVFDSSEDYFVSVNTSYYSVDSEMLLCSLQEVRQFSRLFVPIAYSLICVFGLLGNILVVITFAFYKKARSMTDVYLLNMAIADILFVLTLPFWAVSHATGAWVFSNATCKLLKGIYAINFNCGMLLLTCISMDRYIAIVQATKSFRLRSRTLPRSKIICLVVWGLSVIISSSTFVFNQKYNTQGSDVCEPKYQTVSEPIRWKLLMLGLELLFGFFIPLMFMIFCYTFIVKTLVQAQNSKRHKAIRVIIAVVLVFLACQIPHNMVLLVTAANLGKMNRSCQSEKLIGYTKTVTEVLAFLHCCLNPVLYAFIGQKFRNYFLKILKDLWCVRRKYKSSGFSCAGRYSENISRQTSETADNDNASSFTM
Field format: number, assumed nM, no unit text.

Quick one: give measured IC50 for Cc1cn(C)nc1[C@H](Nc1c(Nc2ccnc(C(=O)N(C)C)c2O)c(=O)c1=O)C1(C)CCC1
16.5

Quick one: give measured IC50 for COc1cn(C)nc1[C@H](Nc1c(Nc2ccnc(C(=O)N(C)C)c2O)c(=O)c1=O)C(C)(C)C
5.4

Quick one: give measured IC50 for COc1cn(C)nc1[C@H](Nc1c(Nc2ccnc(C(=O)N(C)C(C)C)c2O)c(=O)c1=O)C(C)(C)C
12.5

Quick one: give measured IC50 for CCN(C)C(=O)c1nccc(Nc2c(N[C@@H](c3nn(C)cc3C#N)C3(C)CCCC3)c(=O)c2=O)c1O
96.1

Quick one: give measured IC50 for Cc1nc([C@H](Nc2c(Nc3ccnc(C(=O)N(C)C)c3O)c(=O)c2=O)C2(C)CC2)c(C)s1
70.6

Quick one: give measured IC50 for Cc1cn(C)nc1[C@H](Nc1c(Nc2ccnc(C(=O)N3CCN(C)CC3)c2O)c(=O)c1=O)C1(C)CCCC1
29.8
